// provenance: the Immune Epitope Database (IEDB)

- test target: HLA-A*24:03
- test description: IEDB peptide-MHC binding, purified MHC/competitive/fluorescence; filed as Kd, often an IC50 or EC50 that approximates it; bounds were set here for any values at or beyond the usual limits of such assays
- condition label: source organism: Escherichia coli 536
endpoint label: Kd

input: Give me measured Kd, please, for this sequence: QTDNDIWFW
output: ≥ 20 µM

====

- test target: HLA-A*24:02
- test description: IEDB peptide-MHC binding, purified MHC/competitive/radioactivity; filed as Kd, often an IC50 or EC50 that approximates it; bounds were set here for any values at or beyond the usual limits of such assays
- condition label: source organism: Mammarenavirus lassaense
endpoint label: Kd (µM)
Numeric only. Scale: µM

input: Fill: Kd (HLA-A*24:02) for this sequence RYWYLNHTV
output: 0.0768

====

- test target: HLA-A*02:16
- test description: IEDB peptide-MHC binding, purified MHC/competitive/fluorescence; filed as Kd, often an IC50 or EC50 that approximates it; bounds were set here for any values at or beyond the usual limits of such assays
- condition label: source organism: Rickettsia sibirica 246
endpoint label: Kd

input: Give me measured Kd, please, for this sequence: YLKKLDDFY
output: ≥ 20 µM

====

- test target: HLA-B*07:02
- test description: IEDB peptide-MHC binding, purified MHC/direct/fluorescence; filed as Kd, often an IC50 or EC50 that approximates it; bounds were set here for any values at or beyond the usual limits of such assays
- condition label: source organism: Pseudomonas aeruginosa
endpoint label: Kd

input: Give me measured Kd, please, for this sequence: RSFAERLDR
output: ≥ 20 µM

====

- test target: HLA-B*15:01
- test description: IEDB peptide-MHC binding, purified MHC/competitive/radioactivity; filed as Kd, often an IC50 or EC50 that approximates it; bounds were set here for any values at or beyond the usual limits of such assays
- condition label: source organism: Dengue virus 3 Martinique/1243/1999
endpoint label: pKd
As a rule, pKd stands for the negative log10 of the concentration, concentration in M.

input: Give me measured pKd, please, for this sequence: KLNQLSRKEF
output: 7.15

====

- test target: HLA-A*26:01
- test description: IEDB peptide-MHC binding, purified MHC/direct/fluorescence; filed as Kd, often an IC50 or EC50 that approximates it; bounds were set here for any values at or beyond the usual limits of such assays
- condition label: source organism: Yersinia pestis CA88-4125
pKd: −log10 of the molar value.
endpoint label: pKd

input: Give me measured pKd, please, for this sequence: LPEAYQWHI
output: ≤ 4.70

====

- test target: HLA-B*07:02
- test description: IEDB peptide-MHC binding, purified MHC/competitive/fluorescence; bounds were set here for any values at or beyond the usual limits of such assays
- condition label: source organism: Vaccinia virus WR
endpoint label: pIC50
As a rule, pIC50 stands for the negative log10 of the concentration, concentration in M.

input: Give me measured pIC50, please, for this sequence: LPKRSVMLI
output: 5.19

====

- test target: HLA-B*15:01
- test description: IEDB peptide-MHC binding, purified MHC/direct/fluorescence; filed as Kd, often an IC50 or EC50 that approximates it; bounds were set here for any values at or beyond the usual limits of such assays
- condition label: source organism: Listeria monocytogenes
pKd: −log10 of the molar value.
endpoint label: pKd

input: Give me measured pKd, please, for this sequence: EIEIEKNKK
output: ≤ 4.70

====

- test target: HLA-B*40:02
- test description: IEDB peptide-MHC binding, purified MHC/competitive/fluorescence; bounds were set here for any values at or beyond the usual limits of such assays
- condition label: source organism: Homo sapiens
pIC50: −log10 of the molar value.
endpoint label: pIC50

input: Fill: pIC50 (HLA-B*40:02) for this sequence MVRVLTVIKEY
output: ≤ 4.70

====

- test target: HLA-A*26:01
- test description: IEDB peptide-MHC binding, purified MHC/competitive/radioactivity; filed as Kd, often an IC50 or EC50 that approximates it; bounds were set here for any values at or beyond the usual limits of such assays
- condition label: source organism: Mammarenavirus juninense
endpoint label: Kd

input: Give me measured Kd, please, for this sequence: KAEVSMHEV
output: ≥ 77.9 µM

====

- test target: HLA-A*30:01
- test description: IEDB peptide-MHC binding, purified MHC/direct/fluorescence; filed as Kd, often an IC50 or EC50 that approximates it; bounds were set here for any values at or beyond the usual limits of such assays
- condition label: source organism: Pseudomonas aeruginosa
endpoint label: Kd (nM)
Numeric only. Scale: nM

input: Fill: Kd (HLA-A*30:01) for this sequence RSFAERLDR
output: 344

====

- test target: HLA-A*02:16
- test description: IEDB peptide-MHC binding, purified MHC/direct/fluorescence; filed as Kd, often an IC50 or EC50 that approximates it; bounds were set here for any values at or beyond the usual limits of such assays
- condition label: source organism: Convict Creek 107 virus
pKd: −log10 of the molar value.
endpoint label: pKd

input: Give me measured pKd, please, for this sequence: TEFFMSRKL
output: ≤ 4.70

====

- test target: HLA-B*44:02
- test description: IEDB peptide-MHC binding, purified MHC/competitive/fluorescence; bounds were set here for any values at or beyond the usual limits of such assays
- condition label: source organism: Homo sapiens
endpoint label: IC50

input: Give me measured IC50, please, for this sequence: FYYNAFHW
output: ≥ 20 µM

====

- test target: HLA-B*15:42
- test description: IEDB peptide-MHC binding, purified MHC/competitive/fluorescence; filed as Kd, often an IC50 or EC50 that approximates it; bounds were set here for any values at or beyond the usual limits of such assays
- condition label: source organism: Yellow fever virus
pKd: −log10 of the molar value.
endpoint label: pKd

input: Give me measured pKd, please, for this sequence: MVIFFMSPK
output: ≤ 5.30

====

- test target: HLA-A*02:03
- test description: IEDB peptide-MHC binding, purified MHC/competitive/radioactivity; filed as Kd, often an IC50 or EC50 that approximates it; bounds were set here for any values at or beyond the usual limits of such assays
- condition label: source organism: Lassa virus Josiah
endpoint label: Kd (nM)
Numeric only. Scale: nM

input: Give me measured Kd, please, for this sequence: RLLGTFTWTL
output: 106

====

- test target: HLA-A*11:01
- test description: IEDB peptide-MHC binding, purified MHC/direct/fluorescence; filed as Kd, often an IC50 or EC50 that approximates it; bounds were set here for any values at or beyond the usual limits of such assays
- condition label: source organism: Influenza A virus (A/swine/Korea/S190/2004(H9N2))
endpoint label: pKd
As a rule, pKd stands for the negative log10 of the concentration, concentration in M.

input: Fill: pKd (HLA-A*11:01) for this sequence TTHSWIPKR
output: 6.88

====

- test target: HLA-B*83:01
- test description: IEDB peptide-MHC binding, purified MHC/competitive/fluorescence; filed as Kd, often an IC50 or EC50 that approximates it; bounds were set here for any values at or beyond the usual limits of such assays
- condition label: source organism: Yellow fever virus
pKd: −log10 of the molar value.
endpoint label: pKd

input: Give me measured pKd, please, for this sequence: MVIFFMSPK
output: ≤ 5.30

====

- test target: HLA-A*30:01
- test description: IEDB peptide-MHC binding, purified MHC/direct/fluorescence; filed as Kd, often an IC50 or EC50 that approximates it; bounds were set here for any values at or beyond the usual limits of such assays
- condition label: source organism: Escherichia coli O6
endpoint label: pKd
As a rule, pKd stands for the negative log10 of the concentration, concentration in M.

input: Give me measured pKd, please, for this sequence: KTTLFHTFK
output: 8.22

====

- test target: HLA-B*44:02
- test description: IEDB peptide-MHC binding, purified MHC/competitive/radioactivity; filed as Kd, often an IC50 or EC50 that approximates it; bounds were set here for any values at or beyond the usual limits of such assays
- condition label: source organism: Lymphocytic choriomeningitis virus (strain WE)
pKd: −log10 of the molar value.
endpoint label: pKd

input: Give me measured pKd, please, for this sequence: KEPVESCPL
output: ≤ 4.11

====

- test target: HLA-A*69:01
- test description: IEDB peptide-MHC binding, purified MHC/direct/fluorescence; filed as Kd, often an IC50 or EC50 that approximates it; bounds were set here for any values at or beyond the usual limits of such assays
- condition label: source organism: West Nile virus
pKd: −log10 of the molar value.
endpoint label: pKd

input: Give me measured pKd, please, for this sequence: MLRKKQITV
output: ≤ 4.70

====

Listing of recorded pKd by entry.
- test target: HLA-A*02:01
- test description: IEDB peptide-MHC binding, purified MHC/direct/fluorescence; filed as Kd, often an IC50 or EC50 that approximates it; bounds were set here for any values at or beyond the usual limits of such assays
- condition label: source organism: Vibrio vulnificus
As a rule, pKd stands for the negative log10 of the concentration, concentration in M.

INSERT INTO assay_data (seq_string, quantitative_result) VALUES
  ('NGYRWQHQI', 5.87);

Next:
input: Fill: pKd (HLA-A*02:01) for this sequence HLAGFIHAC
output: 7.67
